The reported numbers originate from patent US20250320312A1.

# Target entity: Peptide 1: Biotin-…-[Tyr(PC)]-acid
# Sequence (peptide, as listed by the source): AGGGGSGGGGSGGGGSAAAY
# Assay remarks: scFv ELISA
Assignment: determine reported OD450 for the given binders.
Numbers only here, please. The scale is OD450.

Dear colleague, I am looking for the recorded OD450 of the following binder: PcOxP_DB01_A03 (scFv, V domains shown, scFv in periplasmic extract) VH: EVQLLESGGGLVQPGGSLRLSCAASGFTFSDYYMEWVRQAPGKGLEWVAASRNKANDYTTEYADSVKGRFTISRDNSKNTLYLQMNSLRAEDTAVYYCARDYYGSSYWYFDVWGQGTLVTVSS VL: DIVMTQSPDSLAVSLGERATINCTASESLYSSKHKVHYLAWYQQKPGQPPKLLIYGASNRYIGVPDRFSGSGSGTDFTLTISSLQAEDVAVYYCAQFYSYPLTFGGGTKVEIK
0.86

Which OD450 value belongs to PcOxP_DB03_E11 (scFv, V domains shown, scFv in periplasmic extract) VH: EVQLLESGGGLVQPGGSLRLSCAASGFTFSDGYMEWVRQAPGKGLEWVAASRNKANDYTTEYADSVKGRFTISRDNSKNTLYLQMNSLRAEDTAVYYCARDYYGSSYWYFDVWGQGTLVTVSS VL: DIVMTQSPDSLAVSLGERATINCKSSESLYSSKNKVHYLAWYQQKPGQPPKLLIYGASNRYIGVPDRFSGSGSGTDFTLTISSLQAEDVAVYYCAQFYHYPLTFGGGTKVEIK ?
1.4
